Test system: Rattus norvegicus
experiment.notes: Antiallergic activity against ip dosed passive peritoneal anaphylaxis rat model assessed as inhibition of histamine release in peritoneal fluid administered 30s prior to ovalbumin challenge measured per rat after 5 mins
Format: functional
readout: ED50 (nM)
One number for each entry, in nM.

Please review the entries below; each comes with its answer.
[[record]]
compound = "O=C([O-])c1cc(=O)c2c(OCC(O)COc3cccc4oc(C(=O)[O-])cc(=O)c34)cccc2o1.[Na+].[Na+] [CROMOLYN SODIUM]"
observed = 5.2

[[record]]
compound = "O=c1oc2cc(OCCCOc3ccccc3)ccc2c(O)c1[N+](=O)[O-]"
observed = 2.1

[[record]]
compound = "CCCc1c(OCCCOc2ccc3c(O)c([N+](=O)[O-])c(=O)oc3c2)ccc(C(C)=O)c1O"
observed = 4.8

[[record]]
compound = "CCCc1ccccc1OCC(O)COc1ccc2c(O)c([N+](=O)[O-])c(=O)oc2c1 (centres undefined)"
observed = 1.1

[[record]]
compound = "CCCc1cc(F)ccc1OCC(O)COc1ccc2c(O)c([N+](=O)[O-])c(=O)oc2c1 (centres undefined)"
observed = 1.7


Turning now to a further compound:
Challenge: Report ED50 under test system Rattus norvegicus for CCCc1c(OCC(O)COc2ccc3c(O)c([N+](=O)[O-])c(=O)oc3c2C)ccc(C(C)=O)c1O (centres undefined) .
Response given: 2.4
